experiment: NCI Yeast Anticancer Drug Screen. Data for the mlh1 rad18 strain (AID 175); conditions: S. cerevisiae mlh1 rad18 strain growth inhibition; at 50.0 µM; stronger effect = higher value
The panel holds about 79,000 compounds, 15% with a hit somewhere; the sample as a whole holds those more often.
MEASUREMENT_LABEL: growth inhibition (%)
Output spec: scalar in %, unitless text.

Use the examples below as a reference point.
CCC(=O)NCC1CCCN2CCCCC12 (stereo unspecified) = -22
Oc1ccccc1C=NCCN=Cc1ccccc1O.[Cu] = -7.7
CCOC(=O)C1C(c2ccco2)C2(C#N)C(=N)OC1(C)C2(C#N)C#N (stereo unspecified) = -52
COc1cccc(C2CC(=O)c3cccn32)c1 (stereo unspecified) = -17.2
Nc1nn[nH]n1 (tested in a mixture with another compound) = -3.05

API: the following record is the query input.
Exercise: Could you tell me which growth inhibition is on file for `COc1ccccc1-n1c(C)nc2ccccc2c1=O` ?
Solution: 4.8
